These entries and their values trace back to paper PMC6181373.

Molecular target: LDL particle (all LDL-P; ApoB100 lipoprotein) (UniProt P04114)
Sequence (P04114 whole entry): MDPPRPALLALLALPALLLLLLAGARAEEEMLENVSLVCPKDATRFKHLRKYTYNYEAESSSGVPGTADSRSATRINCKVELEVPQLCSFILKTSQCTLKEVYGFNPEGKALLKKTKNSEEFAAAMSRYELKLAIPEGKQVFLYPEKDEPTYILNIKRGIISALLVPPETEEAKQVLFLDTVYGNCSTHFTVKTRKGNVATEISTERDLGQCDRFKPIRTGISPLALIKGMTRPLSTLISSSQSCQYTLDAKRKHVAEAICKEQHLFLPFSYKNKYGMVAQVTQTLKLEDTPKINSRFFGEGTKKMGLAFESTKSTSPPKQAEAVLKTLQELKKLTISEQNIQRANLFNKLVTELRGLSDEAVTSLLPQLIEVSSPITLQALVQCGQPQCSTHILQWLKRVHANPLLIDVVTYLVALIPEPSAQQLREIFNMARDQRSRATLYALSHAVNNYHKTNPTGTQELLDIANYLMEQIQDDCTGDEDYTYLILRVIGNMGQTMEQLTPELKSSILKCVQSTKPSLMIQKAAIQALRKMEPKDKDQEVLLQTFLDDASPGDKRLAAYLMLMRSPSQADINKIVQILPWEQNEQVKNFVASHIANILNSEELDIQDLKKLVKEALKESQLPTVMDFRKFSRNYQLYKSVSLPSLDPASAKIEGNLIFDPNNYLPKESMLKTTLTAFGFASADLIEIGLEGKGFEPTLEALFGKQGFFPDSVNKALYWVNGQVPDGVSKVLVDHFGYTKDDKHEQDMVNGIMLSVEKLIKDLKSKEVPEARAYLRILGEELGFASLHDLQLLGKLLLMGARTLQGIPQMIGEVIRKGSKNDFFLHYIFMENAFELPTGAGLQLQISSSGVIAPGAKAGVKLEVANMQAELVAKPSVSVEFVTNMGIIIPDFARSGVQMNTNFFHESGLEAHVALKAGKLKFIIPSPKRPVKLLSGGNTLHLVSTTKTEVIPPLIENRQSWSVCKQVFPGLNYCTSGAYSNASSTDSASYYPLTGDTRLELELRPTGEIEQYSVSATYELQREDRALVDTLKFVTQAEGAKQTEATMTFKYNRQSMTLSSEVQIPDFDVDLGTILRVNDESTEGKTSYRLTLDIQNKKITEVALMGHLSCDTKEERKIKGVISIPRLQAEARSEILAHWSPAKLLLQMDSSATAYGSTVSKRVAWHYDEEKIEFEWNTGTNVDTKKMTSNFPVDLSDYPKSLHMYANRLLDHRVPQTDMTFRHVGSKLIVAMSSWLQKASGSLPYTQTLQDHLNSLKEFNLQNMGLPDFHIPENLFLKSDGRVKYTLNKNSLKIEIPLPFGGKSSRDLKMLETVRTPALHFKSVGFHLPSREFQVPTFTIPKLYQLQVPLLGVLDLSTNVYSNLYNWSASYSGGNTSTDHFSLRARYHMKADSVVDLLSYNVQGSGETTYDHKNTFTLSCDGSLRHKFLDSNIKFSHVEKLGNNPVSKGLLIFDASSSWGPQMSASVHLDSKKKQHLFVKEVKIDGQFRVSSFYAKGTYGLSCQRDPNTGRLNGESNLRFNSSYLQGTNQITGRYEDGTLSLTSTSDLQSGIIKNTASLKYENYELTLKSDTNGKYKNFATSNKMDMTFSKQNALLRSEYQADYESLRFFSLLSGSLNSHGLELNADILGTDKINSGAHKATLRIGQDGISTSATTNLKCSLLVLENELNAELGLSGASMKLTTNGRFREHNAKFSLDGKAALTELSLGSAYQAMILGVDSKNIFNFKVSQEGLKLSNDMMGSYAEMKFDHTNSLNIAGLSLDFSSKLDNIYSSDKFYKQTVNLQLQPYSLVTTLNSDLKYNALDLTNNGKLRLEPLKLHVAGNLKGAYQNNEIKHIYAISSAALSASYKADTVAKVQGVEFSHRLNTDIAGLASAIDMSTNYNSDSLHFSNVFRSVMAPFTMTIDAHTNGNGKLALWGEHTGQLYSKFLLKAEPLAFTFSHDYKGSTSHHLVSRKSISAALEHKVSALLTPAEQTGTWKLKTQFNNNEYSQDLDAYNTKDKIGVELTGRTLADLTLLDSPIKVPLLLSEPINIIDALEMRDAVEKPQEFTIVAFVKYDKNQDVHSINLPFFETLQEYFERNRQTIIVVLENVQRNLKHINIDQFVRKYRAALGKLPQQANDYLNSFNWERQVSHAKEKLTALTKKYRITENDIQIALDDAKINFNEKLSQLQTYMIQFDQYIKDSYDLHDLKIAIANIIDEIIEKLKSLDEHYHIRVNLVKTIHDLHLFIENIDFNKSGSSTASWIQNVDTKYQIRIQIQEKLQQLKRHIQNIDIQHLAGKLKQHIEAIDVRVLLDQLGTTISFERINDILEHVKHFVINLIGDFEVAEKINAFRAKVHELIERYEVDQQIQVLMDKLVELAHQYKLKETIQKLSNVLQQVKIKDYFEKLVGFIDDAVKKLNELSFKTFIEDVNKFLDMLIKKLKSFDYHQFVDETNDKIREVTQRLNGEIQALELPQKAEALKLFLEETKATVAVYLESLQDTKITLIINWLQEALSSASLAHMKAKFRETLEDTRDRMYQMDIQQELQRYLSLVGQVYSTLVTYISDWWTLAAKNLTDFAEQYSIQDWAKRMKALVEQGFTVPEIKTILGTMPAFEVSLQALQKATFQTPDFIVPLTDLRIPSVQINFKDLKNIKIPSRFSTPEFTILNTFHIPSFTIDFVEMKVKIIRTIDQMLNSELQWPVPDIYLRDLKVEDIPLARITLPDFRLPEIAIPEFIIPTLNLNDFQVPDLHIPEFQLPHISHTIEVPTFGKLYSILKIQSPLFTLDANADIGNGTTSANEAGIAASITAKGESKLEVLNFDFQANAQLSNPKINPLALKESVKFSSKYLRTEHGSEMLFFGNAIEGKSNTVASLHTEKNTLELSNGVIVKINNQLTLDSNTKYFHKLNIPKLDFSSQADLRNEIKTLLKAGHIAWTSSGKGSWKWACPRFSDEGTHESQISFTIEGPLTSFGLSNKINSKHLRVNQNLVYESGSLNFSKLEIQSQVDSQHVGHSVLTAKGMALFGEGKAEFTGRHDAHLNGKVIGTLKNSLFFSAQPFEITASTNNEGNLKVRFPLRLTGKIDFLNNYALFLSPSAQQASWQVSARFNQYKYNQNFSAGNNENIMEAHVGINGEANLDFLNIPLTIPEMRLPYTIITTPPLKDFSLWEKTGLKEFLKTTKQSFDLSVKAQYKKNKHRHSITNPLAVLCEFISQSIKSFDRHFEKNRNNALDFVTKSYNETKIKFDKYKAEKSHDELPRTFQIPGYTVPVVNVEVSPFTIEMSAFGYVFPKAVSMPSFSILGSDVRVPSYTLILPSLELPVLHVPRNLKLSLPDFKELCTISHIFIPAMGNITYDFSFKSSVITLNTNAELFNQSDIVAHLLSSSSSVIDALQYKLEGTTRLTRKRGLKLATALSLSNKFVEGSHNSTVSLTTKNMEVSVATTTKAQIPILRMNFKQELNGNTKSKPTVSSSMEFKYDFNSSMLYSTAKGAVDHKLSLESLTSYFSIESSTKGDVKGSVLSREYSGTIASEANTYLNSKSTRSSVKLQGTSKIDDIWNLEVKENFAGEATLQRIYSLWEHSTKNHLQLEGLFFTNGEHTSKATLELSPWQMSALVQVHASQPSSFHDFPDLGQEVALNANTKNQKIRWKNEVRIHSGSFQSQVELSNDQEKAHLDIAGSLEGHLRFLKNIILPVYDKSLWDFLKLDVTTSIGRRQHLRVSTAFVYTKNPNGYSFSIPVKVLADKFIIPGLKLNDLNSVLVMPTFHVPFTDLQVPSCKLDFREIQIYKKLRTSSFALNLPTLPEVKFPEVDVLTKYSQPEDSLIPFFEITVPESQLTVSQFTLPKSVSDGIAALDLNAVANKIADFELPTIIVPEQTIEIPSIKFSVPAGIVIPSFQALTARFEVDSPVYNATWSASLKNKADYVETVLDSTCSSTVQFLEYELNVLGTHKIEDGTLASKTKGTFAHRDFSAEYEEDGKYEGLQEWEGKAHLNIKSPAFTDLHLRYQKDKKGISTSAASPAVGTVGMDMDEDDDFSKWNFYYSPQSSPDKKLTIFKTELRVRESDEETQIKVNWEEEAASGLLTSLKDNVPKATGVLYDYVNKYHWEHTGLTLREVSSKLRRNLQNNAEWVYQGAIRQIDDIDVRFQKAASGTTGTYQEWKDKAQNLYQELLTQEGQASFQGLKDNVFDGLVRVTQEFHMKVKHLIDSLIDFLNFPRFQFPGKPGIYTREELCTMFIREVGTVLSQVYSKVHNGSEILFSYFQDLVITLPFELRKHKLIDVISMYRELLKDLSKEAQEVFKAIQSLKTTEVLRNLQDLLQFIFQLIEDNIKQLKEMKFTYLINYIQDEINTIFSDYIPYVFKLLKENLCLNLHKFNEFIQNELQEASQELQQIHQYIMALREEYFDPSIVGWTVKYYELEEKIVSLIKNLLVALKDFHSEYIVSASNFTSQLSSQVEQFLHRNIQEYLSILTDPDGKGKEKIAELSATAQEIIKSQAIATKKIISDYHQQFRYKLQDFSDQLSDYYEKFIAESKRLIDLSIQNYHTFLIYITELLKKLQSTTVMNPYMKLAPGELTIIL
Experiment: SPRi
Settings: 5' disulfide, aptamer on gold chip, 10 mM HEPES, 120 mM NaCl, 10 mM KCl, 5 mM MgCl2, pH 7.4, targets in PBS with 0.1% Tween, random-DNA signal subtracted, temperature …
Measurement Name: pKd
Note on units: pKd is unitless, being -log10 of a concentration expressed in mol/L.

INPUT: What reported pKd corresponds to AACTACATGGTATGTGGTGAACTAAACCATTCTTGTCTCGCATTTTTCTCTTTTATATTATTTGACGTACAATGTACCC [LDL-A38] on LDL particle (all LDL-P; ApoB100 lipoprotein) (UniProt P04114)?
OUTPUT: 10.34

INPUT: Thanks! And AACTACATGGTATGTGGTGAACTAACCTTAATTTACCCTTGTTTTATCATTTCCATCATAGCTGACGTACAATGTACCC [LDL-A12] ?
OUTPUT: 10.30

INPUT: Record: AACTACATGGTATGTGGTGAACTGTCAGCTTCTTCTATATAATTCACCTTGCCTCTCGTTCCTGACGTACAATGTACCC [LDL-A2]
OUTPUT: 10.38

INPUT: Check AACTACATGGTATGTGGTGAACTACCTCGATTTTATATTATTTCGCTTACCAACAACTGCAGAGACGTACAATGTACCC [LDL-A1] too.
OUTPUT: 10.27
